- assayText: BT084 cell growth, single and combined drugs, ICGC_MB145, cisplatin and BGB IC40 combos (AID 1671461);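 further: cells exposed to drugs for 96 hours; 0% = vehicle DMSO and 100% = high DMSO full killing control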
- settings: BT084 medulloblastoma cells, drug combinations, cisplatin combination, at 0.5 µM, stronger effect = higher value
Would you kindly list inhibition for each of these molecules?
Numbers only, in %.

molecule: O=c1[nH]c(=O)n(C2CC(O)C(CO)O2)cc1I (stereo unspecified)
units: %
obsValue: -7.3
//
molecule: COc1cccc2c1C(=O)c1c(O)c3c(c(O)c1C2=O)CC(O)(C(=O)CO)CC3OC1CC(N)C(OC2CCCCO2)C(C)O1 (stereo unspecified)
units: %
obsValue: 23.2

State the recorded inhibition for every item in the following list.
1. NC(=O)c1ncn(C2OC(CO)C(O)C2O)c1O (stereo unspecified)
2. Cc1c(Br)cc(NCC(=O)N/N=C/c2cc([N+](=O)[O-])ccc2O)cc1Br
3. CC(C)OC(=O)[C@H](C)NP(=O)(OC[C@H]1O[C@@H](n2ccc(=O)[nH]c2=O)C(C)(F)[C@@H]1O)Oc1ccccc1 (stereo partly specified)
4. C=C1C(=O)O[C@@H]2C=C(C)CCC=C(C)CC[C@@H]12

1. 6.23
2. -1.86
3. -7.08
4. -9.26

* * *

- assayText: MELAS cybrid and Rieske KO viability enhancers – cell-based, MELAS cybrids, Rieske KO mouse fibroblasts, CellTiter-Glo, primary screen (AID 1508586);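 further: z relative to plate mean and SD of compound and empty wells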
- settings: MELAS cybrid survival, low glucose, CellTiter-Glo 48 h; stronger effect = higher value
Would you kindly list z-score for each of these molecules?
One number for each entry.

The cases that follow already have their z-score on record.
molecule: CCCCNC(=O)[C@@H]1C[C@H](CN2CCOCC2)CN(Cc2ccc(O)cc2)C1
z-score: 1.06
--
molecule: O=C(C=CC=Cc1ccc2c(c1)OCO2)N1CCCCC1
z-score: -0.417
--
molecule: O=C1NCC(=O)N2CCCC12 (stereo not given)
z-score: -0.237
--
molecule: Cc1c(OCC(F)(F)F)ccnc1C[S@@](=O)c1nc2ccccc2[nH]1
z-score: -0.079

State the recorded z-score for every item in the following list.
1. O=[N+]([O-])c1cn2c(n1)OCC(OCc1ccc(OC(F)(F)F)cc1)C2 (stereo not given)
2. O=C1[C@@H]2C[C@@H](O)CN2C(=O)[C@H]2CN(Cc3ccc(CN4CCCCC4)s3)CCN12
3. Cc1ccc(-c2cc(C(=O)NCc3c(C)nn(C)c3C)cc(S(=O)(=O)N3CCOCC3)c2)s1
4. CC(C)CNC(=O)[C@@H]1C[C@H](CN2CCOCC2)CN(Cc2nccn2C)C1
5. Cc1nn(C)c(C)c1-c1ccnc(N2CCCC2c2nc(-c3cccnc3)no2)n1 (stereo not given)
6. CC(=O)[C@@]12OC(C)(c3ccccc3)O[C@@H]1C[C@H]1[C@@H]3CCC4=CC(=O)CC[C@]4(C)[C@H]3CC[C@@]12C (stereo not given in full)

[-0.338, -0.179, -0.303, 0.0237, -0.00142, 0.905]

* * *

- assayText: growth inhibition, single agents and combos, UWB1.289, cell-based, BGB or cisplatin combos, synergistic combos for chromothripsis tumors (AID 1671456);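 further: cells exposed to compound for four days; 0% = vehicle DMSO and 100% = killing by high DMSO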
- settings: UWB1.289 ovarian carcinoma cells, measured here: inhibition with cisplatin combination, at 0.05 µM, stronger effect = higher value
Would you kindly list inhibition for each of these compounds?
Answers are plain numbers, in %.

compound: O=c1cc(-c2ccc(O)cc2)[nH]c(=S)[nH]1
inhibition (%): -19.2

State the recorded inhibition for every item in the following list.
1. C#CCC(CCCCCC)C(=O)O (stereo not given)
2. CON=C1CN(c2nc3c(cc2F)c(=O)c(C(=O)O)cn3C2CC2)CC1CN (stereo not given)
3. C=CC1=C(C)C2=CC3=NC(=C(CC(=O)O)C4=NC(=C(C)C4=C(O)O)C=c4[nH]c(c(C)c4CC)=CC1=N2)C(CCC(=O)O)C3C (stereo not given)
4. COc1ccccc1S(=O)(=O)Nc1ccc2c(c1)CN(C)C(=O)N2
5. C=C1CCC(O)CC1=CC=C1CCCC2(C)C1CCC2C(C)C=CC(C)C(C)C (stereo not given)
6. Nc1ccn(C2CCC(CO)O2)c(=O)n1 (stereo not given)
7. NC(=O)c1ncn(C2OC(CO)C(O)C2O)c1O (stereo not given)

1. 2.18
2. -6.42
3. -4.64
4. -24.9
5. -7.51
6. -3.05
7. -3.17

State the recorded inhibition for every item in the following list.
1. CC1OC(CC(=O)O)CC2=C1C(=O)c1c(O)cccc1C2=O (stereo not given)
2. CC(C)OC(=O)[C@H](C)NP(=O)(OC[C@H]1O[C@@H](n2ccc(=O)[nH]c2=O)C(C)(F)[C@@H]1O)Oc1ccccc1 (stereo not given in full)

91.2
-18.4

* * *

- assayText: MELAS cybrid and Rieske KO viability enhancers – cell-based, MELAS cybrids, Rieske KO mouse fibroblasts, CellTiter-Glo, primary screen (AID 1508586);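 further: z relative to plate mean and SD of compound and empty wells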
- settings: Rieske KO mouse fibroblast survival, low glucose, CellTiter-Glo 72 h
The label depends only on z-score: label 1 if it is at least -0.1, label 0 if it is smaller.

compound: CC(C)CCNc1cc(C(=O)NCCCn2ccnc2)cc(S(=O)(=O)N2CCCC2)c1
qualitativeLabel: label 0
//
compound: CC1(C)S[C@@H]2C(NC(=O)C(C(=O)O)c3ccccc3)C(=O)N2C1C(=O)O (stereo not given in full)
qualitativeLabel: label 0
//
compound: CCC1OC(=O)CC(O)C(C)C(O[C@H]2OC(C)C(O[C@H]3C[C@@](C)(O)C(O)C(C)O3)C(N(C)C)C2O)C(CC=O)CC(C)C(=O)C=CC(C)=CC1COC1OC(C)C(O)C(OC)C1OC (stereo not given in full)
qualitativeLabel: label 0
//
compound: CCN(CC)C(=O)C(C#N)=Cc1cc(O)c(O)c([N+](=O)[O-])c1
qualitativeLabel: label 0
//
compound: CC(=O)O[C@]12COC1CC(O)[C@]1(C)C(=O)C(O)C3=C(C)C(OC(=O)C(O)C(NC(=O)OC(C)(C)C)c4ccccc4)C[C@](O)(C(OC(=O)c4ccccc4)C21)C3(C)C (stereo not given in full)
qualitativeLabel: label 1
//
compound: Oc1cc(O)cc(C=Cc2ccc(O)c(O)c2)c1
qualitativeLabel: label 1
//
compound: O=C(c1ccnc(Cl)c1)N1CCc2[nH]nc(C3CCC3)c2C1
qualitativeLabel: label 1
//
compound: COC(=O)c1ccccc1O
qualitativeLabel: label 0

Could you please find out whether COc1ccc(C=CC(=O)O)cc1O has z-score that meets -0.1 or exceeds it?
label 0

Then what about the compound CC(C)CNc1cc(C(=O)NC2Cc3ccccc3C2)cc(S(=O)(=O)NC(C)C)c1 ?
label 1

Then what about the compound Cc1cc(-c2cc3c(n(Cc4cccnc4)c2=O)CCN(C(=O)c2n[nH]c4c2CCC4)C3)ccc1F ?
label 1

Then what about the compound COc1ccc(CNC(=O)c2cc(NCc3nc[nH]c3C)cc(S(=O)(=O)N3CCCC3)c2)cc1 ?
label 0

Then what about the compound CC(C)CCN1c2nc(Nc3cc(F)c(O)c(F)c3)ncc2N(C)C(=O)C1C (stereo not given) ?
label 0

Then what about the compound Cc1nc(N(C)C(=O)Cc2ccc(-c3ccccn3)cc2)sc1S(N)(=O)=O ?
label 0

* * *

- assayText: viability loss with induced miR-34 in A549 – imaging, A549 dox-inducible miR-34, nuclei and caspase counts, primary screen (AID 1347080)
- settings: A549 miR-34 inducible, Hoechst nuclei count, 48 h; measured here: total cells with miR-34 induction; stronger effect = lower value
measuredEndpoint: cell count

The cases that follow already have their cell count on record.
molecule: CN1CCN(Cc2cccc(-n3cccn3)c2)CC1CCO (centres undefined)
cell count: 8640

molecule: CC[C@]1(O)C[C@H]2CN(CCc3c([nH]c4ccccc34)[C@@](C(=O)OC)(c3cc4c(cc3OC)N(C)[C@H]3[C@@](O)(C(N)=O)[C@H](O)[C@]5(CC)C=CCN6CC[C@]43[C@@H]65)C2)C1
cell count: 1810

molecule: CC(C)C[C@H](NC(=O)C1OC1C(=O)O)C(=O)NCCCCN=C(N)N (some centres undefined)
cell count: 9550

Continue with the next molecule.
Please look up its cell count: CC(C)OC(=O)C(C)N[P@](=O)(OCC1OC(n2ccc(=O)[nH]c2=O)[C@](C)(F)C1O)Oc1ccccc1 (some centres undefined)
9560

* * *

- assayText: MELAS cybrid and Rieske KO viability enhancers – cell-based, MELAS cybrids, Rieske KO mouse fibroblasts, CellTiter-Glo, primary screen (AID 1508586);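 further: z relative to plate mean and SD of compound and empty wells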
- settings: MELAS cybrid survival, low glucose, CellTiter-Glo 48 h; stronger effect = higher value
Would you kindly list z-score for each of these compounds?
Give bare numbers.

compound: CC1(C)S[C@H]2C(NC(=O)C(N)c3ccccc3)C(=O)N2C1C(=O)O (stereo not given in full)
z-score: -0.295

State the recorded z-score for every item in the following list.
1. Cc1nn(C)cc1-c1ccnc(N2CCCN(c3ccc(F)cc3)CC2)n1
2. C[C@]12C=CC(=O)C=C1CC[C@H]1[C@@H]3CC(O)[C@@](O)(C(=O)CO)[C@@]3(C)CC(O)[C@]12F (stereo not given in full)
3. CC(=O)OC1C[C@@H]2CC[C@@H]3[C@@H](CC[C@]4(C)C(OC(C)=O)C([N+]5(C)CCCCC5)C[C@@H]34)[C@@]2(C)CC1[N+]1(C)CCCCC1 (stereo not given in full)

[-0.739, 0.159, -0.344]

Please look up its z-score: CCN1CCN(C(=O)NC(C(=O)NC2C(=O)N3C2SC(C)(C)C3C(=O)O)c2ccccc2)C(=O)C1=O (stereo not given)
-0.177

The values you see were collected from PubChem BioAssay.
